# Tested on: UMC-11
# experimentDescription: relative viability (nuclei count vs DMSO), 5 days (fraction); higher = more cells survive
# recordedConditions: first compound 0.08 µM
Recorded measurements of relative viability, one per entry
// response body must contain only the number

Below are worked cases with known answers.
Oc1nc(-c2ccc(C(F)(F)F)cc2)nc2c1CSCC2 [XAV939] + COc1cccc2cc(-c3nc([C@H]4CC[C@H](C(=O)O)CC4)n4ncnc(N)c34)[nH]c12 [OSI-027] (partner 0.5 µM) = 0.456
Oc1nc(-c2ccc(C(F)(F)F)cc2)nc2c1CSCC2 [XAV939] + Cc1nc(Nc2ncc(C(=O)Nc3c(C)cccc3Cl)s2)cc(N2CCN(CCO)CC2)n1 [Dasatinib] (partner 0.075 µM) = 0.542
Oc1nc(-c2ccc(C(F)(F)F)cc2)nc2c1CSCC2 [XAV939] + Cc1nc(NC(=O)N2CCC[C@H]2C(N)=O)sc1-c1ccnc(C(C)(C)C(F)(F)F)c1 [Alpelisib] (partner 2 µM) = 1.2
C=C1C(=O)O[C@@H](CCCCCCCC)[C@@H]1C(=O)O [C-75] + Cc1nc(NC(=O)N2CCC[C@H]2C(N)=O)sc1-c1ccnc(C(C)(C)C(F)(F)F)c1 [Alpelisib] (partner 2 µM) = 0.927

// switching to the query compound
Input Oc1nc(-c2ccc(C(F)(F)F)cc2)nc2c1CSCC2 [XAV939] + CS(=O)(=O)CCNCc1ccc(-c2ccc3ncnc(Nc4ccc(OCc5cccc(F)c5)c(Cl)c4)c3c2)o1 [Lapatinib] (partner 2 µM) . Output relative viability: 1.15

---

# Tested on: LK-2
# experimentDescription: relative viability (nuclei count vs DMSO), 5 days (fraction); higher = more cells survive
# recordedConditions: first compound 2.53 µM
recordedEndpoint: relative viability
Would you mind answering with just the numeric figure?

C=C1C(=O)O[C@@H](CCCCCCCC)[C@@H]1C(=O)O [C-75] + COc1cccc2cc(-c3nc([C@H]4CC[C@H](C(=O)O)CC4)n4ncnc(N)c34)[nH]c12 [OSI-027] (partner 0.5 µM) = 0.16
Oc1nc(-c2ccc(C(F)(F)F)cc2)nc2c1CSCC2 [XAV939] + CC(=O)Nc1cccc(-n2c(=O)n(C3CC3)c(=O)c3c(Nc4ccc(I)cc4F)n(C)c(=O)c(C)c32)c1 [Trametinib] (partner 0.02 µM) = 0.535
C=C1C(=O)O[C@@H](CCCCCCCC)[C@@H]1C(=O)O [C-75] + CC1(C)CCC(c2ccc(Cl)cc2)=C(CN2CCN(c3ccc(C(=O)NS(=O)(=O)c4ccc(N[C@H](CCN5CCOCC5)CSc5ccccc5)c(S(=O)(=O)C(F)(F)F)c4)cc3)CC2)C1 [Navitoclax] (partner 0.5 µM) = 0.769
Oc1nc(-c2ccc(C(F)(F)F)cc2)nc2c1CSCC2 [XAV939] + NC(=O)Nc1cc(-c2cccc(F)c2)sc1C(=O)N[C@H]1CCCNC1 [AZD7762] (partner 0.2 µM) = 0.238
C=C1C(=O)O[C@@H](CCCCCCCC)[C@@H]1C(=O)O [C-75] + Cc1cc(Nc2cc(N3CCN(C)CC3)nc(Sc3ccc(NC(=O)C4CC4)cc3)n2)n[nH]1 [Tozasertib] (partner 0.1 µM) = 0.155
C=C1C(=O)O[C@@H](CCCCCCCC)[C@@H]1C(=O)O [C-75] + NC(=O)Nc1cc(-c2cccc(F)c2)sc1C(=O)N[C@H]1CCCNC1 [AZD7762] (partner 0.2 µM) = 0.289

# next compound below
Reported relative viability for Oc1nc(-c2ccc(C(F)(F)F)cc2)nc2c1CSCC2 [XAV939] + Cc1nc(Nc2ncc(C(=O)Nc3c(C)cccc3Cl)s2)cc(N2CCN(CCO)CC2)n1 [Dasatinib] (partner 0.075 µM) was 0.399

---

# Tested on: NCI-H1355
# experimentDescription: relative viability (nuclei count vs DMSO), 5 days (fraction); higher = more cells survive
# recordedConditions: first compound 0.005 µM
Reported relative viability is given for each of the following compounds.
Reply: number alone, nothing else.

CC1(C)CCC(c2ccc(Cl)cc2)=C(CN2CCN(c3ccc(C(=O)NS(=O)(=O)c4ccc(N[C@H](CCN5CCOCC5)CSc5ccccc5)c(S(=O)(=O)C(F)(F)F)c4)cc3)CC2)C1 [Navitoclax] + Nc1nc2[nH]cc(CCc3ccc(C(=O)N[C@@H](CCC(=O)O)C(=O)O)cc3)c2c(=O)[nH]1 [Pemetrexed] (partner 0.2 µM) = 0.998

Let me check: CC1(C)CCC(c2ccc(Cl)cc2)=C(CN2CCN(c3ccc(C(=O)NS(=O)(=O)c4ccc(N[C@H](CCN5CCOCC5)CSc5ccccc5)c(S(=O)(=O)C(F)(F)F)c4)cc3)CC2)C1 [Navitoclax] + O=C(CCCCCCC(=O)Nc1ccccc1)NO [Vorinostat] (partner 1 µM) , system NCI-H1355, measured relative viability is 0.63

Bench note, NCI-H1355: entry CC1(C)CCC(c2ccc(Cl)cc2)=C(CN2CCN(c3ccc(C(=O)NS(=O)(=O)c4ccc(N[C@H](CCN5CCOCC5)CSc5ccccc5)c(S(=O)(=O)C(F)(F)F)c4)cc3)CC2)C1 [Navitoclax] + N=C(N)NC(=N)NCCc1ccccc1 [Phenformin] (partner 250 µM) , its relative viability = 0.48

# CC1(C)CCC(c2ccc(Cl)cc2)=C(CN2CCN(c3ccc(C(=O)NS(=O)(=O)c4ccc(N[C@H](CCN5CCOCC5)CSc5ccccc5)c(S(=O)(=O)C(F)(F)F)c4)cc3)CC2)C1 [Navitoclax] + Nc1ncn([C@H]2C[C@H](O)[C@@H](CO)O2)c(=O)n1 [Decitabine] (partner 2 µM) with NCI-H1355: relative viability is 0.338

---

# System: RERF-LC-KJ
# experimentDescription: relative viability (nuclei count vs DMSO), 5 days (fraction); higher = more cells survive
# recordedConditions: first compound 2.53 µM
recordedEndpoint: relative viability
Write the number on its own, no unit after it.

These solved cases illustrate the format of a correct answer.
C=C1C(=O)O[C@@H](CCCCCCCC)[C@@H]1C(=O)O [C-75] + COc1cc2c(Oc3ccc(NC(=O)C4(C(=O)Nc5ccc(F)cc5)CC4)cc3F)ccnc2cc1OCCCN1CCOCC1 [Foretinib] (partner 0.25 µM) = 0.797
Oc1nc(-c2ccc(C(F)(F)F)cc2)nc2c1CSCC2 [XAV939] + O=C(c1cc(Cc2n[nH]c(=O)c3ccccc23)ccc1F)N1CCN(C(=O)C2CC2)CC1 [Olaparib] (partner 8 µM) = 0.292
C=C1C(=O)O[C@@H](CCCCCCCC)[C@@H]1C(=O)O [C-75] + NC(=O)Nc1cc(-c2cccc(F)c2)sc1C(=O)N[C@H]1CCCNC1 [AZD7762] (partner 0.2 µM) = 0.925
Oc1nc(-c2ccc(C(F)(F)F)cc2)nc2c1CSCC2 [XAV939] + CS(=O)(=O)N1CCN(Cc2cc3nc(-c4cccc5[nH]ncc45)nc(N4CCOCC4)c3s2)CC1 [Pictilisib] (partner 1 µM) = 0.366
C=C1C(=O)O[C@@H](CCCCCCCC)[C@@H]1C(=O)O [C-75] + Cc1cc(Nc2cc(N3CCN(C)CC3)nc(Sc3ccc(NC(=O)C4CC4)cc3)n2)n[nH]1 [Tozasertib] (partner 0.1 µM) = 0.493

Documented relative viability of C=C1C(=O)O[C@@H](CCCCCCCC)[C@@H]1C(=O)O [C-75] + CCNC(=O)c1noc(-c2cc(C(C)C)c(O)cc2O)c1-c1ccc(CN2CCOCC2)cc1 [Luminespib] (partner 0.01 µM) : 1.08

Note to self: relative viability recorded for Oc1nc(-c2ccc(C(F)(F)F)cc2)nc2c1CSCC2 [XAV939] + C[C@]1(O)C[C@@H](c2nc(-c3ccc4ccc(-c5ccccc5)nc4c3)c3c(N)nccn32)C1 [Linsitinib] (partner 1 µM) was 0.661

---

# Tested on: NCI-H1792
# experimentDescription: relative viability (nuclei count vs DMSO), 5 days (fraction); higher = more cells survive
# recordedConditions: first compound 0.08 µM
In this section, each of the molecules is paired with its reported relative viability.

Oc1nc(-c2ccc(C(F)(F)F)cc2)nc2c1CSCC2 [XAV939] + Nc1nc2[nH]cc(CCc3ccc(C(=O)N[C@@H](CCC(=O)O)C(=O)O)cc3)c2c(=O)[nH]1 [Pemetrexed] (partner 0.2 µM) = 0.967
C=C1C(=O)O[C@@H](CCCCCCCC)[C@@H]1C(=O)O [C-75] + N=C(N)NC(=N)NCCc1ccccc1 [Phenformin] (partner 250 µM) = 0.236
Oc1nc(-c2ccc(C(F)(F)F)cc2)nc2c1CSCC2 [XAV939] + COc1cccc2cc(-c3nc([C@H]4CC[C@H](C(=O)O)CC4)n4ncnc(N)c34)[nH]c12 [OSI-027] (partner 0.5 µM) = 0.82

GET /value?item= Oc1nc(-c2ccc(C(F)(F)F)cc2)nc2c1CSCC2 [XAV939] + CC(C)C[C@H](NC(=O)[C@H](Cc1ccccc1)NC(=O)c1cnccn1)B(O)O [Bortezomib] (partner 0.002 µM) &field=relative viability returns 0.945

Kindly note the recorded relative viability for C=C1C(=O)O[C@@H](CCCCCCCC)[C@@H]1C(=O)O [C-75] + Nc1ncn([C@H]2C[C@H](O)[C@@H](CO)O2)c(=O)n1 [Decitabine] (partner 2 µM) , which is 0.516

For reference, reported relative viability for C=C1C(=O)O[C@@H](CCCCCCCC)[C@@H]1C(=O)O [C-75] + O=C(c1cc(Cc2n[nH]c(=O)c3ccccc23)ccc1F)N1CCN(C(=O)C2CC2)CC1 [Olaparib] (partner 8 µM) stands at 0.384

Value of relative viability reported for the molecule Oc1nc(-c2ccc(C(F)(F)F)cc2)nc2c1CSCC2 [XAV939] + O=C(c1cc(Cc2n[nH]c(=O)c3ccccc23)ccc1F)N1CCN(C(=O)C2CC2)CC1 [Olaparib] (partner 8 µM) is 0.602

relative viability measured on C=C1C(=O)O[C@@H](CCCCCCCC)[C@@H]1C(=O)O [C-75] + CC(=O)Nc1cccc(-n2c(=O)n(C3CC3)c(=O)c3c(Nc4ccc(I)cc4F)n(C)c(=O)c(C)c32)c1 [Trametinib] (partner 0.02 µM) = 0.474

Just so you know, measured relative viability for C=C1C(=O)O[C@@H](CCCCCCCC)[C@@H]1C(=O)O [C-75] + C[C@]1(O)C[C@@H](c2nc(-c3ccc4ccc(-c5ccccc5)nc4c3)c3c(N)nccn32)C1 [Linsitinib] (partner 1 µM) came out at 0.527

The molecule listed as C=C1C(=O)O[C@@H](CCCCCCCC)[C@@H]1C(=O)O [C-75] + NC(=O)Nc1cc(-c2cccc(F)c2)sc1C(=O)N[C@H]1CCCNC1 [AZD7762] (partner 0.2 µM) has a reported relative viability of 0.787
